Form field: TGI (one value per entry).
test system: EKVX; assay: Cytotoxicity against human EKVX cells; type: functional; settings: read-out: pTGI (converted)
MEASURED_QUANTITY: TGI (µM)

* CC1=C([Se]CC(OC(=O)[C@@H](CO)NC(=O)OC(C)(C)C)C(=O)NC(C)(C)C)C(=O)c2ccccc2C1=O (some centres undefined) | 3.72
* CC1=C([Se]CC(OC(=O)[C@@H](CO)NC(=O)OC(C)(C)C)C(=O)NCCCCCC(=O)OCc2ccccc2)C(=O)c2ccccc2C1=O (some centres undefined) | 3.89
* CC1=C([Se]CC(OC(=O)[C@@H](CSSC(C)(C)C)NC(=O)C(C)(C)C)C(=O)NCCCCCC(=O)OCc2ccccc2)C(=O)c2ccccc2C1=O (some centres undefined) | 5.37
* CC1=C(SCCC(=O)OC(C[Se]C2=C(C)C(=O)c3ccccc3C2=O)C(=O)NCCCCCC(=O)OCc2ccccc2)C(=O)c2ccccc2C1=O (centres undefined) | 17.8

* * *

tested on: Malme-3M; assay: Cytotoxicity against human MALME-3M cells; type: functional; conditions: read-out: pTGI (converted)
MEASURED_QUANTITY: TGI (µM)

* CC1=C([Se]CC(OC(=O)[C@@H](CO)NC(=O)OC(C)(C)C)C(=O)NCCCCCC(=O)OCc2ccccc2)C(=O)c2ccccc2C1=O (some centres undefined) | 3.8
* CC1=C(SCCC(=O)OC(C[Se]C2=C(C)C(=O)c3ccccc3C2=O)C(=O)NCCCCCC(=O)OCc2ccccc2)C(=O)c2ccccc2C1=O (centres undefined) | 6.92
* CC1=C([Se]CC(OC(=O)[C@@H](CSSC(C)(C)C)NC(=O)C(C)(C)C)C(=O)NCCCCCC(=O)OCc2ccccc2)C(=O)c2ccccc2C1=O (some centres undefined) | 5.13
* CC1=C([Se]CC(OC(=O)[C@@H](CO)NC(=O)OC(C)(C)C)C(=O)NC(C)(C)C)C(=O)c2ccccc2C1=O (some centres undefined) | 3.8

* * *

test system: TK-10; assay: Cytotoxicity against human TK10 cells; format: functional; conditions: read-out: pTGI (converted)
MEASURED_QUANTITY: TGI (µM)

* CC1=C([Se]CC(OC(=O)[C@@H](CO)NC(=O)OC(C)(C)C)C(=O)NC(C)(C)C)C(=O)c2ccccc2C1=O (some centres undefined) | 3.47
* CC1=C(SCCC(=O)OC(C[Se]C2=C(C)C(=O)c3ccccc3C2=O)C(=O)NCCCCCC(=O)OCc2ccccc2)C(=O)c2ccccc2C1=O (centres undefined) | 26.9
* CC1=C([Se]CC(OC(=O)[C@@H](CSSC(C)(C)C)NC(=O)C(C)(C)C)C(=O)NCCCCCC(=O)OCc2ccccc2)C(=O)c2ccccc2C1=O (some centres undefined) | 4.47
* CC1=C([Se]CC(OC(=O)[C@@H](CO)NC(=O)OC(C)(C)C)C(=O)NCCCCCC(=O)OCc2ccccc2)C(=O)c2ccccc2C1=O (some centres undefined) | 3.47

* * *

tested on: OVCAR-5; assay: Cytotoxicity against human OVCAR5 cells; type: functional
Form field: GI50 (one value per entry).
MEASURED_QUANTITY: GI50 (µM)

- CC1=C([Se]CC(OC(=O)[C@@H](CSSC(C)(C)C)NC(=O)C(C)(C)C)C(=O)NCCCCCC(=O)OCc2ccccc2)C(=O)c2ccccc2C1=O (some centres undefined): 2.57
- CC1=C([Se]CC(OC(=O)[C@@H](CO)NC(=O)OC(C)(C)C)C(=O)NCCCCCC(=O)OCc2ccccc2)C(=O)c2ccccc2C1=O (some centres undefined): 2.09
- CC1=C(SCCC(=O)OC(C[Se]C2=C(C)C(=O)c3ccccc3C2=O)C(=O)NCCCCCC(=O)OCc2ccccc2)C(=O)c2ccccc2C1=O (centres undefined): 5.01
- CC1=C([Se]CC(OC(=O)[C@@H](CO)NC(=O)OC(C)(C)C)C(=O)NC(C)(C)C)C(=O)c2ccccc2C1=O (some centres undefined): 2.09
